# TARGET OF ASSAY: HCoV-OC43 Mpro (Human coronavirus OC43, UniProt P0C6X6)
# Sequence (P0C6X6 3247-3549 limits assumed): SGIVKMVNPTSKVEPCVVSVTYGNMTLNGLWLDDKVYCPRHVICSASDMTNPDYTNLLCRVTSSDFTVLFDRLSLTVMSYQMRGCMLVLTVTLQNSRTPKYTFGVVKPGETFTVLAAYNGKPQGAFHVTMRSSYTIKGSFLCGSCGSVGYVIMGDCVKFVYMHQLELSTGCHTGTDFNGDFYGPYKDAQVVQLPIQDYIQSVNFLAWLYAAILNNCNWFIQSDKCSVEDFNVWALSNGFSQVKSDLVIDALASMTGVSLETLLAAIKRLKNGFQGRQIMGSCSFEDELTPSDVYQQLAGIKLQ
# EXPERIMENTAL DETAILS: HCoV-OC43 Mpro enzymatic inhibition assay (fluorescence)
# Assay type: biochemical
pIC50: −log10 of the molar value.
Classification field: enter T for pIC50 values not below 7, F for values below it.

Look over these answered cases.
INPUT: Can O=C[C@H](C[C@@H]1CCNC1=O)NC(=O)[C@@H]1CC2(CC2)CN1C(=O)c1cc2c(F)cccc2[nH]1 be said to have pIC50 at or above 7?
OUTPUT: T

INPUT: Could you please find out whether O=C[C@H](C[C@@H]1CCNC1=O)NC(=O)[C@@H]1C[C@@H](C2CCCCC2)CN1C(=O)c1cc2c(F)cccc2[nH]1 has pIC50 that meets 7 or exceeds it?
OUTPUT: T

INPUT: Item COc1ccc2cc(C(=O)N3C[C@H]4[C@@H]([C@H]3C(=O)N[C@H](C=O)C[C@@H]3CCNC3=O)C4(C)C)[nH]c2c1 with pIC50 of 7 or above?
OUTPUT: T

INPUT: Quick check, pIC50 >= 7? Cc1ccc2cc(C(=O)N3C[C@H]4[C@@H]([C@H]3C(=O)N[C@H](C=O)C[C@@H]3CCNC3=O)C4(C)C)[nH]c2c1
OUTPUT: T

INPUT: Has O=C[C@H](C[C@@H]1CCNC1=O)NC(=O)[C@@H]1C[C@@H](C2CCCCC2)CN1C(=O)c1cc2ccccc2[nH]1 a recorded pIC50 greater than or equal to 7?
OUTPUT: T

---
INPUT: Please indicate if the recorded pIC50 for O=C[C@H](C[C@@H]1CCNC1=O)NC(=O)[C@@H]1C[C@@H](Cc2ccccc2Cl)CN1C(=O)c1cc2ccccc2[nH]1 meets or exceeds 7.
OUTPUT: F

INPUT: Check this compound for pIC50 at or above 7: COc1cccc2[nH]c(C(=O)N3CC4(CC4)C[C@H]3C(=O)N[C@H](C=O)C[C@@H]3CCNC3=O)cc12
OUTPUT: T

INPUT: Hi, just wondering whether COc1ccc(F)c2[nH]c(C(=O)N3C[C@H]4[C@@H]([C@H]3C(=O)N[C@H](C=O)C[C@@H]3CCNC3=O)C4(C)C)cc12 shows pIC50 of 7 or higher.
OUTPUT: T

INPUT: Tell me whether pIC50 is at least 7 here: CC(C)(C)NC(=O)N[C@H](C(=O)N1C[C@H]2[C@@H]([C@H]1C(=O)N[C@@H](C[C@@H]1CCNC1=O)C(=O)C(N)=O)C2(C)C)C(C)(C)C
OUTPUT: F

INPUT: Please check the record CC1(C)[C@@H]2[C@@H](C(=O)N[C@H](C=O)C[C@@H]3CCNC3=O)N(C(=O)c3cc4c(F)ccc(Cl)c4[nH]3)C[C@@H]21 and state if its pIC50 is at or above 7.
OUTPUT: T
